# Kd values compiled below
# test system: T1, Extracellular domain of cyno PD1 (cPD1-ECD) (Macaca fascicularis (cynomolgus))
# T1 construct: Expressed with a hexahistidine tag or as Fc fusion; also called cynoPD1-ECD; cynoPD-1-ECD
# T1 chain: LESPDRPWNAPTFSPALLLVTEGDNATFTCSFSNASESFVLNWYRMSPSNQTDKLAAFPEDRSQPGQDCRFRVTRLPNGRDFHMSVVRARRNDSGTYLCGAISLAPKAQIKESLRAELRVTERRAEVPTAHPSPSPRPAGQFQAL
# assay details: SPR ProteOn, cynoPD1-ECD; RANGE high replicate
readout kind: Kd (µM)

>>> readout_number("PD1B71 (antibody, V domains shown, Tested as IgG2sigma/kappa; also called PD1H108/PH9L3) VH: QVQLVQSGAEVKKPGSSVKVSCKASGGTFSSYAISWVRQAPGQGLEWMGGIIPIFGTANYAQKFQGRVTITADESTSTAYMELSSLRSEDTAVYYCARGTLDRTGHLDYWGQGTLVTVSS VL: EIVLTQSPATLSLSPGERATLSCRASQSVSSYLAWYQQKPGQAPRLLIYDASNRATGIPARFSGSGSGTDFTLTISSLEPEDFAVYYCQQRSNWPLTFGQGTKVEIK")
0.0614
>>> readout_number("PD1B195 (antibody, V domains shown, also called PD1H170/PD1L67) VH: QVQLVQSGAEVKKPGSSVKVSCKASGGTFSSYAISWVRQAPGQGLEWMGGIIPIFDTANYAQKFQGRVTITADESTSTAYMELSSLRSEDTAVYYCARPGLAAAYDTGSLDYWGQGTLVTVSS VL: EIVLTQSPATLSLSPGERATLSCRASQSVDSYLAWYQQKPGQAPRLLIYDASNRATGIPARFSGSGSGTDFTLTISSLEPEDFAVYYCQQREYWPLTFGQGTKVEIK")
0.00097
>>> readout_number("PD1B70 (antibody, V domains shown, Tested as IgG2sigma/kappa; also called PD1H107/PH9L3) VH: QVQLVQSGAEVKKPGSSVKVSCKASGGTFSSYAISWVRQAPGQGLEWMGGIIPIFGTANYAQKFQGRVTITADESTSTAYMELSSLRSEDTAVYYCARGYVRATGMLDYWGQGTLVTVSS VL: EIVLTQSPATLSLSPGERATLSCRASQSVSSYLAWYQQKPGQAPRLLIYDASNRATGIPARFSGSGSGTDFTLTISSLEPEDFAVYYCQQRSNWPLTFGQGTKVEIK")
0.1
